Where do these numbers come from? They come from patent US20030068675.

Biological target: T1, ZFP SBS#1282 (synthetic)
T1 chain: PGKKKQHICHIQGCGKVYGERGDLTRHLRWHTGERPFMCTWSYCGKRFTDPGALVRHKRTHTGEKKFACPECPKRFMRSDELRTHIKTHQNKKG
Assay: EMSA
Conditions: tags: MBP fusion
Experimental endpoint: pKd
Worth noting: pKd values are minus log10 of concentrations stated in mol/L.

Identify measured pKd corresponding to TCGGTCGCC (dsDNA) DNA 1: TCGGTCGCC DNA 2: GGCGACCGA
7.13
